All figures here come from patent US20100113430A1.

- System: multiresistant clinical isolate of Staphylococcus epidermidis
- testProtocol: MIC, microdilution broth method (NCCLS), Staphylococcus epidermidis
- Format: cell-based
- setupConditions: multiresistant clinical isolate of Staphylococcus epidermidis, Example 1
measuredMetric: MIC (µg/mL)
Your answer is read as µg/mL, so omit the unit and give the number.

The examples below pair each entry with its known result.
Clc1ccc2c(c1)/C(=C/CCN1CCNCC1)c1ccccc1S2 [N-dealkyl-trans-clopenthixol] :: 0.5
Fc1ccc2c(c1)C(=CCCN1CCNCC1)c1ccccc1S2 [N-dealkyl-cis-flupenthixol] :: 16
CNCCC=C1c2ccccc2Sc2ccc(Cl)cc21 [N-desmethyl-Chlorprothixen, reference compound] :: 16
FC(F)(F)c1ccc2c(c1)N(CCCN1CCNCC1)c1ccccc1S2 [N-deshydroxy-ethyl-Fluphenazine, reference compound] :: 16
Clc1ccc2c(c1)/C(=C\CCN1CCNCC1)c1ccccc1S2 [N-dealkyl-cis-clopenthixol] :: 16

API: the following record is the query input.
[in] If you can, please state the reported MIC value of CNCCCN1c2ccccc2Sc2ccc(Cl)cc21 [N-desmethyl-chlorpromazine, reference compound] .
[out] 16
